# protocol_details: Ratio of drug level in Sprague-Dawley rat brain to plasma at 3 mg/kg, po administered as single dose measured after 1 hr
# Assay type: ADME, organism-based
# stated_conditions: read-out: BPR
endpoint: Kp at 1 h

Req: Any idea what its Kp at 1 h is? The molecule is FC(F)(F)c1c(OC[C@H]2C[C@@H]2c2ccc(Cl)cc2)ccn2c(CC3CC3)nnc12
Resp: 0.38

* * *

# protocol_details: Metabolic stability in human liver microsomes assessed as compound remaining measured after 10 mins
# Type: ADME
# stated_conditions: read-out: Stability
Field 'label' (enum: Y / N). Set to Y when remaining at 10 min is strictly under 80%; else N.

Clc1c(OCc2cccc(-c3cncnc3)c2)ccn2c(CC3CC3)nnc12	Y
CC(C)(COc1ccn2c(CC3CC3)nnc2c1C(F)(F)F)c1ccc(F)cc1	N
FC(F)(F)c1c(OC2CC(c3ccccc3)C2)ccn2c(CC3CC3)nnc12 (stereo not drawn)	Y
Clc1c(OCc2cccc(-c3ccccc3)c2)ccn2c(CC3CC3)nnc12	Y
Clc1cccc(COc2ccn3c(CC4CC4)nnc3c2Cl)c1	Y
Fc1ccc(C2(COc3ccn4c(CC5CC5)nnc4c3C(F)(F)F)CC2)cc1	N

Req: is_below(remaining at 10 min, 80%) for FC(F)(F)c1c(OCC2(c3ccccc3)CCCCC2)ccn2c(CC3CC3)nnc12 ?
Resp: Y

Req: is_below(remaining at 10 min, 80%) for FC(F)(F)c1c(O[C@H]2CC[C@H](c3ccccc3)CC2)ccn2c(CC3CC3)nnc12 ?
Resp: N

Req: is_below(remaining at 10 min, 80%) for Clc1c(OCc2ccccc2-c2ccccc2)ccn2c(CC3CC3)nnc12 ?
Resp: Y

Req: is_below(remaining at 10 min, 80%) for Clc1c(OCc2ccccc2)ccn2c(CC3CC3)nnc12 ?
Resp: Y

Req: is_below(remaining at 10 min, 80%) for Clc1c(OCc2ccc(-c3ccccc3)cc2)ccn2c(CC3CC3)nnc12 ?
Resp: N

Req: is_below(remaining at 10 min, 80%) for FC(F)(F)c1c(OC[C@H]2C[C@@H]2c2ccc(Cl)cc2)ccn2c(CC3CC3)nnc12 ?
Resp: N

Req: is_below(remaining at 10 min, 80%) for CC(C)(COc1ccn2c(CC3CC3)nnc2c1C(F)(F)F)c1ccc(Cl)cc1 ?
Resp: N

Req: is_below(remaining at 10 min, 80%) for FC(F)(F)c1c(OCC2(c3ccc(Cl)cc3)CC2)ccn2c(CC3CC3)nnc12 ?
Resp: Y

Req: is_below(remaining at 10 min, 80%) for FC(F)(F)c1c(OCC(F)(F)c2ccccc2)ccn2c(CC3CC3)nnc12 ?
Resp: Y

Req: is_below(remaining at 10 min, 80%) for Clc1c(OCc2cccc3ccncc23)ccn2c(CC3CC3)nnc12 ?
Resp: Y

Req: is_below(remaining at 10 min, 80%) for Clc1ccccc1COc1ccn2c(CC3CC3)nnc2c1Cl ?
Resp: Y

Req: is_below(remaining at 10 min, 80%) for Fc1ccc(C2CC(Oc3ccn4c(CC5CC5)nnc4c3C(F)(F)F)C2)cc1 (stereo not drawn) ?
Resp: N

Req: is_below(remaining at 10 min, 80%) for CC(COc1ccn2c(CC3CC3)nnc2c1C(F)(F)F)c1ccc(F)cc1 (stereo not drawn) ?
Resp: Y

Req: is_below(remaining at 10 min, 80%) for Clc1c(OC2CCc3ccccc3C2)ccn2c(CC3CC3)nnc12 (stereo not drawn) ?
Resp: Y
